# System under test: Gag-Pol polyprotein (Human immunodeficiency virus type 1 group M subtype B (isolate HXB2))
# Assay explanation: ST Inhibitory Assay
# yes (1) = IC50 below 3 µM (exclusive); no (0) = IC50 at/above 3 µM

Qu. Take the compound `CC(=O)Oc1ccc(/C=C/C(=O)Nc2ccc(S(=O)(=O)Nc3cccc(Cl)c3F)cc2)cc1OC(C)=O` and say whether its IC50 is less than 3 µM.
Ans. no (0)

Qu. Take the compound `CC(=O)Oc1cc(C(=O)Nc2ccc(S(=O)(=O)Nc3ccccc3C)cc2)cc(OC(C)=O)c1OC(C)=O` and say whether its IC50 is less than 3 µM.
Ans. yes (1)

Qu. Take the compound `O=C(Nc1ccc(S(=O)(=O)Nc2ccccc2Br)cc1)c1cc(O)c(O)c(O)c1` and say whether its IC50 is less than 3 µM.
Ans. yes (1)

Qu. Take the compound `O=C(/C=C/c1ccc(O)c(O)c1)Nc1ccc(S(=O)(=O)Nc2cccc(Br)c2)cc1` and say whether its IC50 is less than 3 µM.
Ans. no (0)

Qu. Take the compound `O=C(Nc1ccc(S(=O)(=O)Nc2ccccc2)cc1)c1ccc(O)c(O)c1` and say whether its IC50 is less than 3 µM.
Ans. no (0)

Qu. Take the compound `CCCCc1ccc(NS(=O)(=O)c2ccc(NC(=O)/C=C/c3ccc(O)c(O)c3)cc2)cc1` and say whether its IC50 is less than 3 µM.
Ans. no (0)

Qu. Take the compound `Cc1ccccc1NS(=O)(=O)c1ccc(NC(=O)c2cc(O)c(O)c(O)c2)cc1` and say whether its IC50 is less than 3 µM.
Ans. yes (1)

Qu. Take the compound `O=C(Nc1ccc(S(=O)(=O)Nc2cccc(Br)c2)cc1)c1cc(O)c(O)c(O)c1` and say whether its IC50 is less than 3 µM.
Ans. yes (1)

Qu. Take the compound `CCOc1ccc(NS(=O)(=O)c2ccc(NC(=O)/C=C/c3ccc(O)c(O)c3)cc2)cc1` and say whether its IC50 is less than 3 µM.
Ans. no (0)

Qu. Take the compound `O=C(/C=C/c1ccc(O)c(O)c1)Nc1ccc(S(=O)(=O)Nc2ccccc2)cc1` and say whether its IC50 is less than 3 µM.
Ans. no (0)

Qu. Take the compound `O=C(Nc1ccc(S(=O)(=O)Nc2cccc(Br)c2)cc1)c1ccc(O)c(O)c1` and say whether its IC50 is less than 3 µM.
Ans. no (0)

Qu. Take the compound `O=C(/C=C/c1ccc(O)c(O)c1)Nc1ccc(S(=O)(=O)Nc2ccc(F)c(Br)c2)cc1` and say whether its IC50 is less than 3 µM.
Ans. no (0)

Qu. Take the compound `O=C(Nc1ccc(S(=O)(=O)NCc2ccc(F)cc2)cc1)c1cc(O)c(O)c(O)c1` and say whether its IC50 is less than 3 µM.
Ans. yes (1)

Qu. Take the compound `O=C(/C=C/c1ccc(O)c(O)c1)Nc1ccc(S(=O)(=O)Nc2ccc(F)cc2)cc1` and say whether its IC50 is less than 3 µM.
Ans. no (0)

Qu. Take the compound `O=C(/C=C/c1ccc(O)c(O)c1)Nc1ccc(S(=O)(=O)Nc2ccc(Cl)c(Cl)c2)cc1` and say whether its IC50 is less than 3 µM.
Ans. no (0)

Qu. Take the compound `Cc1cc(C)cc(NS(=O)(=O)c2ccc(NC(=O)/C=C/c3ccc(O)c(O)c3)cc2)c1` and say whether its IC50 is less than 3 µM.
Ans. no (0)

Qu. Take the compound `CCOc1ccc(NS(=O)(=O)c2ccc(NC(=O)c3cc(O)c(O)c(O)c3)cc2)cc1` and say whether its IC50 is less than 3 µM.
Ans. yes (1)

Qu. Take the compound `CC(=O)Oc1cc(C(=O)Nc2ccc(S(=O)(=O)Nc3ccccc3)cc2)cc(OC(C)=O)c1OC(C)=O` and say whether its IC50 is less than 3 µM.
Ans. yes (1)

Values were extracted from BindingDB's records for doi:10.3109/14756366.2011.604851.
